pKi values recorded for VchαCA (Vibrio cholerae, UniProt Q9KMP6)
pKi: −log10 of the molar value.
measurement-kind: pKi

> print(dat)
                                   molecule  result
1     NS(=O)(=O)c1ccc(NC(=O)CNCc2ccccc2)cc1    7.21
2      NS(=O)(=O)c1ccc(NC(=O)CNc2ccccc2)cc1    7.28
3  NS(=O)(=O)c1cccc(NCCNc2ccccc2Br)c1 [14a]    7.20
4  NS(=O)(=O)c1ccc(N2CCN(c3ccccc3F)C2=O)cc1    8.01
5  Cc1cccc(N2CCN(c3ccc(S(N)(=O)=O)cc3)C2=O)n1    7.96
6  NS(=O)(=O)c1ccc(N2CCN(c3ccccc3Br)C2=O)cc1    7.33
7    NS(=O)(=O)c1cccc(NCCNc2ccccc2)c1 [11a]    7.20
